biological target: human TLR7 (wild type sequence) (Homo sapiens, UniProt Q9NYK1); construct: expressed in transfected cells; host or cells: HEK293; test: TLR7 cellular NFκB-luc reporter assay, wild type TLR7; format: cell-based; design: unit not given here; conditions: lowest effective concentration, wild type TLR7
Each entry below carries its reported TLR7-wt_LEC.
# respond with the number and nothing more

Molecule | Measured value
CCC[C@@H](CCO)Nc1nc(N)ncc1OCc1cc(C)n(C)n1 [Compound 246] | 0.157
CCC[C@@H](CCO)Nc1nc(N)ncc1OCc1cccc(C(N)=O)n1 [Compound 270] | 0.109
CCCC[C@@H](CCO)Nc1nc(N)ncc1OCCOC(C)C [Compound 296] | 0.664

Recall the reported TLR7-wt_LEC of CCCCNc1nc(N)ncc1OCCOCC(C)C [Compound 289] when tested on human TLR7 (wild type sequence) (Homo sapiens, UniProt Q9NYK1).
0.875

Recall the reported TLR7-wt_LEC of C=CC[C@H](CCCC)Nc1nc(N)ncc1OC [Compound 292] when tested on human TLR7 (wild type sequence) (Homo sapiens, UniProt Q9NYK1).
0.913

----------
biological target: human TLR8 (wild type sequence) (Homo sapiens); construct: expressed in transfected cells; host or cells: HEK293; assay: TLR8 cellular NFκB-luc reporter assay, wild type TLR8; format: cell-based; design: unit not given here; details: lowest effective concentration, wild type TLR8 (compounds 74 onward)
Answer -1 if TLR 8 wt LEC is under 7, and 1 if it is 7 or more.

Molecule | Cat
CC[C@H](C)[C@@H](CO)Nc1nc(N)ncc1OCCCc1ccccc1 [Compound 115] | -1
COc1cnc(N)nc1NCCCCF [Compound 97] | -1
CCCCNc1nc(N)ncc1OCCCc1cccc(OC)c1OC [Compound 150] | -1
CCCCNc1nc(N)ncc1OCCn1ccc(=O)c2ccc(OC)cc21 [Compound 144] | 1
CCCCNc1nc(N)ncc1OCc1nc(-c2ccccc2)no1 [Compound 155] | -1
CCCC[C@H](Nc1nc(N)ncc1OCCCc1ccccc1)C(=O)OC [Compound 82] | 1

Given CCCCNc1nc(N)ncc1OCc1cccnn1 [Compound 78] , state whether its TLR 8 wt LEC is at least 7.
-1

Given CCCCNc1nc(N)ncc1OCc1cccc2cccnc12 [Compound 184] , state whether its TLR 8 wt LEC is at least 7.
-1

Given CCC(CO)Nc1nc(N)ncc1OC (stereo not shown) [Compound 92] , state whether its TLR 8 wt LEC is at least 7.
1

Given CCCC[C@@H](CCOC(=O)NCC)Nc1nc(N)ncc1OC [Compound 89] , state whether its TLR 8 wt LEC is at least 7.
-1

----------
Each entry below carries its reported TLR8-wt_LEC.
molecular target: human TLR8 (wild type sequence) (Homo sapiens, UniProt Q9NR97); construct: expressed in transfected cells; host or cells: HEK293; test: TLR8 cellular NFκB-luc reporter assay, wild type TLR8; type: cell-based; design: unit not given here; conditions: lowest effective concentration, wild type TLR8 (compounds 1-73)
Sequence (Q9NR97 27-1041): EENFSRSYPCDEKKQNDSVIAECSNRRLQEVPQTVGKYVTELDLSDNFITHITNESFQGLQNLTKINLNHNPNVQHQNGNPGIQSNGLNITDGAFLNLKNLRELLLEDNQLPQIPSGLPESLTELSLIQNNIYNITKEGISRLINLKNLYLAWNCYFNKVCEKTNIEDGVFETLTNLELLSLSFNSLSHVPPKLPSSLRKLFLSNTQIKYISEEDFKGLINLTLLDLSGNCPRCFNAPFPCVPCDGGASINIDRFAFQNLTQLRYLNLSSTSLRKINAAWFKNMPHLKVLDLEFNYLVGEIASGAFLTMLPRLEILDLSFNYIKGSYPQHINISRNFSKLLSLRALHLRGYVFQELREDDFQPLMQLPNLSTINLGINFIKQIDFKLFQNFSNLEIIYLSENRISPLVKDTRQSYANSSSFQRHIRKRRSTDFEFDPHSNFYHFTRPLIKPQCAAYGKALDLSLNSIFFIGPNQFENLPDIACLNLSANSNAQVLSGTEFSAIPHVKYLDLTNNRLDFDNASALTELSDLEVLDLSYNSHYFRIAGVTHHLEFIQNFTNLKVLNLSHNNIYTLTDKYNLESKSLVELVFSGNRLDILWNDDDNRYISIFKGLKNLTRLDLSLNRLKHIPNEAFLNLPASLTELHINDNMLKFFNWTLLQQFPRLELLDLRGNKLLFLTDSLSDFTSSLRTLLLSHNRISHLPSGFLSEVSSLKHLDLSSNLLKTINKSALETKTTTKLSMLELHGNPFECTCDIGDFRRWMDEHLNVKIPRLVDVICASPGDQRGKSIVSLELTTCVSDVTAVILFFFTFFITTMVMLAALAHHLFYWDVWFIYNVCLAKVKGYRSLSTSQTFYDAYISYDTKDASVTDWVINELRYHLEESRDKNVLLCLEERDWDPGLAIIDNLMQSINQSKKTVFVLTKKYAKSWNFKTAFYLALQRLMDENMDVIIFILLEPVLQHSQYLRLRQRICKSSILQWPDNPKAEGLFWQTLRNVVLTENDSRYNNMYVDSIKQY
# respond with the number and nothing more

Guide cases for TLR8-wt_LEC, answers given:
Item smiles | System | TLR8-wt_LEC
CCCCNc1nc(N)ncc1OCc1ccccc1Cl | human TLR8 (wild type sequence) (Homo sapiens, UniProt Q9NR97) | 2.31
CCCCNc1nc(N)ncc1OCCC(C)C | human TLR8 (wild type sequence) (Homo sapiens, UniProt Q9NR97) | 19.00
CCCCNc1nc(N)ncc1OC | human TLR8 (wild type sequence) (Homo sapiens, UniProt Q9NR97) | 2.56
CCCCNc1nc(N)ncc1OCc1ccccc1OC(F)(F)F | human TLR8 (wild type sequence) (Homo sapiens, UniProt Q9NR97) | 8.22
CCC[C@H](CO)Nc1nc(N)ncc1OC | human TLR8 (wild type sequence) (Homo sapiens, UniProt Q9NR97) | 6.57
CCCCNc1nc(N)ncc1OCc1ccc(C(=O)OCC)o1 | human TLR8 (wild type sequence) (Homo sapiens, UniProt Q9NR97) | 3.85

Give a short answer stating reported TLR8-wt_LEC for CCCCNc1nc(N)ncc1OCc1ccccc1C .
4.92

Give a short answer stating reported TLR8-wt_LEC for CCCCNc1nc(N)ncc1OCc1ccc(Cl)c(Cl)c1 .
4.52

Give a short answer stating reported TLR8-wt_LEC for COc1cnc(N)nc1NCCCC(F)(F)F .
9.03

Give a short answer stating reported TLR8-wt_LEC for CCCCNc1nc(N)ncc1OCc1c(C)noc1C .
1.68

Give a short answer stating reported TLR8-wt_LEC for CCCCNc1nc(N)ncc1OCc1ccccc1 .
2.42

Give a short answer stating reported TLR8-wt_LEC for CCCCNc1nc(N)ncc1OCCCO .
2.42

Give a short answer stating reported TLR8-wt_LEC for CCCCNc1nc(N)ncc1OCCCC(N)=O .
9.18

----------
molecular target: human TLR8 (wild type sequence) (Homo sapiens, UniProt Q9NR97); construct: expressed in transfected cells; host or cells: HEK293; test: TLR8 cellular NFκB-luc reporter assay, wild type TLR8; assay type: cell-based; parameters: unit not given here; conditions: lowest effective concentration, wild type TLR8 (compounds 74 onward)
// map TLR 8 wt LEC to label using low = under 0.6, middle = from 0.6 up to 2, high = 2 and over

Compound | System | Cat
CCCCNc1nc(N)ncc1OCCOCc1ccccc1 [Compound 83] | human TLR8 (wild type sequence) (Homo sapiens, UniProt Q9NR97) | middle
CCCCNc1nc(N)ncc1OCc1nn(C)c(C)c1N [Compound 85] | human TLR8 (wild type sequence) (Homo sapiens, UniProt Q9NR97) | high
CCCCNc1nc(N)ncc1OCc1cccc(CO)c1 [Compound 77] | human TLR8 (wild type sequence) (Homo sapiens, UniProt Q9NR97) | middle
CCCCNc1nc(N)ncc1OCc1nn(C)c2ccccc12 [Compound 182] | human TLR8 (wild type sequence) (Homo sapiens, UniProt Q9NR97) | low
CCC[C@@H](CO)Nc1nc(N)ncc1OCc1ccc2ccccc2n1 [Compound 192] | human TLR8 (wild type sequence) (Homo sapiens, UniProt Q9NR97) | low

Class label required: CCCCNc1nc(N)ncc1OCc1noc(-c2ccccc2)n1 [Compound 156]
high

Class label required: CCC[C@@H](CO)Nc1nc(N)ncc1OCc1ncc(C)c(OC)c1C [Compound 76]
low

Class label required: CCCCNc1nc(N)ncc1OCCOc1ccc(OC)c(OC)c1 [Compound 140]
high

Class label required: CCCCNc1nc(N)ncc1OCc1ccc2ccccc2n1 [Compound 157]
middle

Class label required: CCCCNc1nc(N)ncc1OCCCc1ccc(F)cc1F [Compound 107]
high

----------
Target: human TLR7 (wild type sequence) (Homo sapiens, UniProt Q9NYK1)
Construct: expressed in transfected cells; host or cells: HEK293
Sequence (Q9NYK1 27-1049): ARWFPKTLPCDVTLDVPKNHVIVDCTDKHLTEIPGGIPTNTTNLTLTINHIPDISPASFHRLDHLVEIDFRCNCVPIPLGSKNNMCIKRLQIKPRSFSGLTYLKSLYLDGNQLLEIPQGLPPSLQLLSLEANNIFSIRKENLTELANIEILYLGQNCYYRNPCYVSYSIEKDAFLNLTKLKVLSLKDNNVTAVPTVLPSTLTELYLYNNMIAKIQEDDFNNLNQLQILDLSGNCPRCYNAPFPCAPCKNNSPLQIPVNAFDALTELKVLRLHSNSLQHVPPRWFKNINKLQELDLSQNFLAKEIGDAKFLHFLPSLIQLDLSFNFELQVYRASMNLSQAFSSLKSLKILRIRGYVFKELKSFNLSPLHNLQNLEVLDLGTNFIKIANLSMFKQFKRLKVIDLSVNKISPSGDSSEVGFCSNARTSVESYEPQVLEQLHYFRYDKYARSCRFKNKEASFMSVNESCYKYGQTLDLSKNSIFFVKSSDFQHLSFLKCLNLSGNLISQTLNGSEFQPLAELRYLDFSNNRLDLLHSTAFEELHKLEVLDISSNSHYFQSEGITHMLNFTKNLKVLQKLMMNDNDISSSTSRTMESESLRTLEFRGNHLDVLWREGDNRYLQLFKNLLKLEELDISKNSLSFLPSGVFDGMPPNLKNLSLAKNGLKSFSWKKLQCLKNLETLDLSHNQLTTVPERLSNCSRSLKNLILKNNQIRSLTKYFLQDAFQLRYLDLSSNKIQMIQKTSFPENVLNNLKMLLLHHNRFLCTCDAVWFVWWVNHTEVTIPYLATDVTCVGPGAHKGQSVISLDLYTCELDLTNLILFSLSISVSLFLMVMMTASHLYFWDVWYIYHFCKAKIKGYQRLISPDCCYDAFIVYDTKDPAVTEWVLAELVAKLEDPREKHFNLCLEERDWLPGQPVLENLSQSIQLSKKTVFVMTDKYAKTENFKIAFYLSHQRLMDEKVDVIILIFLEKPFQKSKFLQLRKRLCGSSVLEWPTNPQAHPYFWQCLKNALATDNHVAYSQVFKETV
Assay: TLR7 cellular NFκB-luc reporter assay, wild type TLR7
Format: cell-based
Parameters: unit not given here
Conditions: lowest effective concentration, wild type TLR7 (compounds 1-73)
Result type: TLR7-wt_LEC
# respond with the number and nothing more

Compound | System | Measured value
CCCC(C)Nc1nc(N)ncc1OC (stereo not drawn) | human TLR7 (wild type sequence) (Homo sapiens, UniProt Q9NYK1) | 21.59
CCCCCNc1nc(N)ncc1Oc1ccccc1OC | human TLR7 (wild type sequence) (Homo sapiens, UniProt Q9NYK1) | 21.97
CCCCNc1nc(N)ncc1OC | human TLR7 (wild type sequence) (Homo sapiens, UniProt Q9NYK1) | 6.71
CCCCCNc1nc(N)ncc1OC | human TLR7 (wild type sequence) (Homo sapiens, UniProt Q9NYK1) | 12.02
CCCCNc1nc(N)ncc1OCCCc1ccccc1 | human TLR7 (wild type sequence) (Homo sapiens, UniProt Q9NYK1) | 1.53

Give a short answer stating reported TLR7-wt_LEC for CCCCNc1nc(N)ncc1OCC .
5.58

Give a short answer stating reported TLR7-wt_LEC for CCCCCOc1cnc(N)nc1NCCCC .
10.60

Give a short answer stating reported TLR7-wt_LEC for CCCCCNc1nc(N)ncc1OCC .
2.78

Data origin, for the record: patent US11541050B2
